# pIC50 listing for each entry below
target: PDGFR beta (Homo sapiens, UniProt P09619); construct: endogenous in cells; host or cells: HS27 human fibroblast cell line; experiment: Phospho PDGFR Cell Assay, sandwich ELISA (Example A); assay type: cell-based; details: averaged IC50, PDGFR beta phosphorylation in HS27 human fibroblast cell line, PDGF-BB stimulation 5 minutes
Sequence (P09619 33-1106): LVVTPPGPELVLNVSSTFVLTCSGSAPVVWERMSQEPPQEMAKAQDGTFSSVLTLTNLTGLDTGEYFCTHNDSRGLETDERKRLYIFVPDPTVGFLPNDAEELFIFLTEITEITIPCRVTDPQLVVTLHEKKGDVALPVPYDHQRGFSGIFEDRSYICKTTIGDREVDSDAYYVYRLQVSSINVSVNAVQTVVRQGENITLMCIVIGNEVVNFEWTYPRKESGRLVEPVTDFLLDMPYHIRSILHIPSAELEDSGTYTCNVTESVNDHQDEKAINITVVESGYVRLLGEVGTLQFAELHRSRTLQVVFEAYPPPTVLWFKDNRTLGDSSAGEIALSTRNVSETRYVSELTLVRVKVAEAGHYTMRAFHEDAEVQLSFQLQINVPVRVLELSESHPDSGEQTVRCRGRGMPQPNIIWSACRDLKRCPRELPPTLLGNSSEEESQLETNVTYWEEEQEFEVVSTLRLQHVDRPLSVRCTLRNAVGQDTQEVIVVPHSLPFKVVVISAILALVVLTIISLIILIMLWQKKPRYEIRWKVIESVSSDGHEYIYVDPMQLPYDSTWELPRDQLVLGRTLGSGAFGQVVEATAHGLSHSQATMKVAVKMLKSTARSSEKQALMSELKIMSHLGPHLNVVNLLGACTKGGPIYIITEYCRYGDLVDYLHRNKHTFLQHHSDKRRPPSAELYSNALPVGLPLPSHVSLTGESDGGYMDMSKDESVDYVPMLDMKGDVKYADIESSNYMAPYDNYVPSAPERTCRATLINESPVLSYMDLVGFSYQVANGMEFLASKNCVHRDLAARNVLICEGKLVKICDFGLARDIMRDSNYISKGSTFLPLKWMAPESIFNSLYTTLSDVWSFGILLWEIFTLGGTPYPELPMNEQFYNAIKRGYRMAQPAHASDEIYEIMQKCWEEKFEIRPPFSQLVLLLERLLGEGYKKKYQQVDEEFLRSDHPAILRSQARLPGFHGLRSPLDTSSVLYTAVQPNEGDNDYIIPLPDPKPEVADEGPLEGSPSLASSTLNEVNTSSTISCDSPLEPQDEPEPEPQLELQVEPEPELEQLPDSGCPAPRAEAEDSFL
# pIC50: negative log10 of molar concentration; output just the value

INSERT INTO assay_data (molecule, outcome_measure, recorded_result) VALUES
  ('Cc1nn(Cc2cccc(C3CC3)n2)c2ccc(F)c(NC(=O)c3cnc4cc(OCCN5CCN(C)[C@@H](C)C5)ccn34)c12', 'pIC50', 7.07);

Please give the measured pIC50 for this molecule: CCC(C)c1cccc(Cn2nc(C)c3c(NC(=O)c4cnc5cc(OCCN6CCN(C)[C@@H](C)C6)ccn45)cccc32)n1 (stereo partly drawn)
6.99

Same read-out for COCCOc1ccn2c(C(=O)Nc3cccc4c3c(C)nn4CC3CCCCO3)cnc2c1 (stereo not drawn) ?
6.51

---

molecular target: c-KIT (Homo sapiens, UniProt P10721); construct: M-07e cells (human acute megakaryoblastic leukemia cell line) were serum-starved for 4 hours; endogenous in cells; assay: c-KIT Cell-Based Assay (Example D); details: averaged IC50; phospho-c-KIT in M-07e cells stimulated with 150 ng/ml recombinant human SCF; read-out: cKIT Cell ELISA IC50
Sequence (P10721 26-976): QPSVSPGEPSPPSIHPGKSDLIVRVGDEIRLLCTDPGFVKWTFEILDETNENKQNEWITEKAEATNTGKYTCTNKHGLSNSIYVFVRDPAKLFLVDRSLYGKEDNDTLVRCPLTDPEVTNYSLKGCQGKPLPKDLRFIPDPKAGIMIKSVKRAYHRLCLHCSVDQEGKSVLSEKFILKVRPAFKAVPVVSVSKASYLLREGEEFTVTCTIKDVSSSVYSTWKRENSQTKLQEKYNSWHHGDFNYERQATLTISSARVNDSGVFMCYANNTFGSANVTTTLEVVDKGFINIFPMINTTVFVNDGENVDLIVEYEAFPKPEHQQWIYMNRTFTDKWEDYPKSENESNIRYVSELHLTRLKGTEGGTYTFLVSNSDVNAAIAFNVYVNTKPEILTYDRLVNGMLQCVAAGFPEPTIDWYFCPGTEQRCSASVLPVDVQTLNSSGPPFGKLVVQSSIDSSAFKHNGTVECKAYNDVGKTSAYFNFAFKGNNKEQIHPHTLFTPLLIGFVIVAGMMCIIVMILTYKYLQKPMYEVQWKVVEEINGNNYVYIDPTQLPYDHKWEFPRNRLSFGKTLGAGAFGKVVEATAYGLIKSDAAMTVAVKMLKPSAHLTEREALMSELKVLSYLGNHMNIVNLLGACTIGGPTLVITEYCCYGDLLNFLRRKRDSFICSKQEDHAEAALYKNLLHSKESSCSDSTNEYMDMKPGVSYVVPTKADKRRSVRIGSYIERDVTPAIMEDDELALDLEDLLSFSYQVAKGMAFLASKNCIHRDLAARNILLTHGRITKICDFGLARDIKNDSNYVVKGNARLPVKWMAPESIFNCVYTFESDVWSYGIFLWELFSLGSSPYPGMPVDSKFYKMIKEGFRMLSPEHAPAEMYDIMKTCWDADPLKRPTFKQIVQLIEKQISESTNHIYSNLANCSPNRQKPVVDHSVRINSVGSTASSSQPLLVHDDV
Counter-ions that a name gives are not always drawn.
outcome.measure: pIC50
# pIC50: negative log10 of molar concentration; output just the value

Some molecules with recorded pIC50:
INSERT INTO assay_data (molecule, recorded_result) VALUES
  ('COCCOc1ccn2c(C(=O)Nc3cccc4c3cnn4CC3CC3)cnc2c1 [Example 110]', 6.77),
  ('O=C(Nc1cccc2c1cnn2Cc1ccccc1)c1cnc2cc(Br)ccn12 [Example 161]', 7.37),
  ('CCCc1ccc(Cn2nc(C)c3c(NC(=O)c4cnc5cc(OCCN6CCN(C)[C@@H](C)C6)ccn45)cccc32)nc1 [Example 38]', 6.47),
  ('Cc1nn(Cc2cc(C)n(C(C)C)n2)c2cccc(NC(=O)c3cnc4cc(OCCN5CCN(C)CC5)ccn34)c12 [Example 67]', 7.22),
  ('Cc1cccc(Cn2nc(C)c3c(NC(=O)c4cnc5cc(N6CCCC6)ccn45)cccc32)n1 [Example 54, dihydrochloride]', 6.41);

Please give the measured pIC50 for this molecule: COCCOc1ccn2c(C(=O)Nc3cccc4c3c(C)nn4Cc3ccccc3)cnc2c1 [Example 80]
5.24

Same read-out for COCCOc1ccn2c(C(=O)Nc3cccc4c3c(C)nn4CC3CCCCO3)cnc2c1 (stereo not drawn) [Example 82] ?
6.34

Same read-out for Cc1ncc(Cn2ncc3c(NC(=O)c4cnc5cc(OCCN6CCN(C)CC6)ccn45)cccc32)s1 [Example 149] ?
8.32

Same read-out for CCC(C)c1cccc(Cn2nc(C)c3c(NC(=O)c4cnc5cc(OCCN6CCN(C)[C@@H](C)C6)ccn45)cccc32)n1 (stereo partly drawn) [Example 37] ?
7.21

---

molecular target: PDGFR beta (Homo sapiens, UniProt P09619); construct: endogenous in cells; host or cells: HS27 human fibroblast cell line; test: Phospho PDGFR Cell Assay, sandwich ELISA (Example A); assay type: cell-based; conditions: averaged IC50, PDGFR beta phosphorylation in HS27 human fibroblast cell line, PDGF-BB stimulation 5 minutes
outcome.measure: IC50 (nM)
Provide the reading as a plain figure in nM.

Some compounds with recorded IC50:
INSERT INTO assay_data (compound, recorded_result) VALUES
  ('Cc1nn(Cc2cccc(C(F)(F)F)n2)c2cccc(NC(=O)c3cnc4cc(OCCN5CCN(C(C)C)CC5)ccn34)c12', 347),
  ('Cc1nn(Cc2cccc(C(C)C)n2)c2cccc(NC(=O)c3cnc4cc(OCCN5CC6(CN(C)C6)C5)ccn34)c12', 27.9),
  ('Cc1nn(Cc2cccc(C(C)C)n2)c2cccc(NC(=O)c3cnc4cc(OCCN5CC6(COC6)C5)ccn34)c12', 20.5),
  ('Cc1nn(Cc2cccc(C(C)C)n2)c2cccc(NC(=O)c3cnc4cc(OCCN5CCN(C)CC5)ccn34)c12', 18.3),
  ('COCCOc1ccn2c(C(=O)Nc3cccc4c3cnn4CC3CN(C(=O)OC(C)(C)C)CCO3)cnc2c1 (stereo not drawn)', 162),
  ('Cc1nn(Cc2cccc(C3CCC3)n2)c2cccc(NC(=O)c3cnc4cc(OCCN5CCN(C)[C@@H](C)C5)ccn34)c12', 66.5),
  ('C[C@H]1CN(CCOc2ccn3c(C(=O)Nc4cccc5c4c(F)nn5Cc4cccc(C5CC5)n4)cnc3c2)CCN1C', 14.1),
  ('Cc1nn(Cc2cccc(C(C)C)n2)c2cccc(NC(=O)c3cnc4cc(OCCN5CCOCC5)ccn34)c12', 29.7);

Please give the measured IC50 for this compound: `Cc1nn(Cc2cccc(C(C)C)n2)c2cccc(NC(=O)c3cnc4cc(OCCN5CCN(C(C)C)CC5)ccn34)c12`
33.5

Same read-out for `Cc1nn(Cc2cccc(C3CCCC3)n2)c2cccc(NC(=O)c3cnc4cc(OCCN5CCN(C)[C@@H](C)C5)ccn34)c12` ?
65.8

Same read-out for `Cc1nn(Cc2cccc(C3CC3)n2)c2cccc(NC(=O)c3cnc4cc(OCCN5CCOCC5)ccn34)c12` ?
59.9

Same read-out for `Cc1nn(Cc2cccc(C(C)(C)C)n2)c2cccc(NC(=O)c3cnc4cc(OCCN5CCN(C)[C@@H](C)C5)ccn34)c12` ?
335

Same read-out for `Cc1nn(Cc2cccc(C3CC3)n2)c2cccc(NC(=O)c3cnc4cc(OCCN5CCN(C)CC5)ccn34)c12` ?
74.9
